- Test system: Candida krusei E28
- TEST: Antifungal evaluation, microdilution broth method
- Type: cell-based
- ASSAY_CONDITIONS: Pichia kudriavzevii, E28; CK, 24 h
RESULT_TYPE: IC80 (µM)
Numbers only; they are read as µM.

Query: Tell me reported IC80 for NC(=O)c1nccnc1NC1CCCC1 [Compound 11] , tested with Candida krusei E28.
Reply: 250

Query: Report IC80 for OC(Cn1cncn1)(Cn1cncn1)c1ccc(F)cc1F [FLU, fluconazole] tested on Candida krusei E28.
Reply: 125

Query: What value of IC80 on Candida krusei E28 does NC(=O)c1nccnc1NC1CCCCC1 [Compound 12] have?
Reply: 15.6

Query: Reported IC80 for Candida krusei E28, given C[C@@H](c1ncncc1F)[C@](O)(Cn1cncn1)c1ccc(F)cc1F [VOR, voriconazole] ?
Reply: 0.98

Query: Lookup: IC80 / Candida krusei E28 / C[C@@H]1[C@H](O)[C@@H](C)/C=C/C=C/C=C/C=C/C=C/C=C/C=C/[C@H](O[C@@H]2O[C@H](C)[C@@H](O)[C@H](N)[C@@H]2O)C[C@@H]2O[C@](O)(C[C@@H](O)C[C@@H](O)[C@H](O)CC[C@@H](O)C[C@@H](O)CC(=O)O[C@H]1C)C[C@H](O)[C@H]2C(=O)O [AMP, amphotericin B]
Reply: 1.95

Query: Param readout = IC80; param system = Candida krusei E28; param query = NC(=O)c1nccnc1NC1CCCCCC1 [Compound 13] ; response: value
Reply: 7.81

---

- Test system: Trichophyton mentagrophytes 445
- TEST: Antifungal evaluation, microdilution broth method
- Assay type: cell-based
- ASSAY_CONDITIONS: Trichophyton mentagrophytes, 445; TM, 72 h
Listed here: items and their measured IC80.
Lab book: enter the figure in µM, no units written.

C[C@@H](c1ncncc1F)[C@](O)(Cn1cncn1)c1ccc(F)cc1F
0.06
NC(=O)c1nccnc1NC1CCCCC1
15.6
NC(=O)c1nccnc1NC1CCCCCC1
15.6
C[C@@H]1[C@H](O)[C@@H](C)/C=C/C=C/C=C/C=C/C=C/C=C/C=C/[C@H](O[C@@H]2O[C@H](C)[C@@H](O)[C@H](N)[C@@H]2O)C[C@@H]2O[C@](O)(C[C@@H](O)C[C@@H](O)[C@H](O)CC[C@@H](O)C[C@@H](O)CC(=O)O[C@H]1C)C[C@H](O)[C@H]2C(=O)O
1.95

Query: Which value of IC80 has been reported for `NC(=O)c1nccnc1NC1CCCC1` in the records?
Reply: 500

Query: Suppose we examine the molecule `OC(Cn1cncn1)(Cn1cncn1)c1ccc(F)cc1F` ; what IC80 value has been reported?
Reply: 7.81

---

- Test system: Candida tropicalis 156
- TEST: Antifungal evaluation, microdilution broth method
- Type: cell-based
- ASSAY_CONDITIONS: Candida tropicalis, 156; CT, 24 h
RESULT_TYPE: IC80 (µM)
Note: unit µM is implicit; provide only the numeric part.

NC(=O)c1nccnc1NC1CCCCCC1
62.5
C[C@@H](c1ncncc1F)[C@](O)(Cn1cncn1)c1ccc(F)cc1F
250
NC(=O)c1nccnc1NC1CCCCC1
125

Continue with the next molecule.
Query: Returns the measured IC80 for the input molecule. Input: `C[C@@H]1[C@H](O)[C@@H](C)/C=C/C=C/C=C/C=C/C=C/C=C/C=C/[C@H](O[C@@H]2O[C@H](C)[C@@H](O)[C@H](N)[C@@H]2O)C[C@@H]2O[C@](O)(C[C@@H](O)C[C@@H](O)[C@H](O)CC[C@@H](O)C[C@@H](O)CC(=O)O[C@H]1C)C[C@H](O)[C@H]2C(=O)O`
Reply: 1.95
